Taken from patent US20130060024A1.

Here the recorded IC50 is given for each entry.
System: Aβ-40
procedure_details: Aβ-40 MSD 3-PLEX ELISA, conditioned media of 2B7 cells
Assay type: cell-based
experimental_setup: Homo sapiens; 2B7 cells, 5 hours at 37° C., 1% DMSO; read-out: Aβ 40 IC50
attribute_measured: IC50

{"record_smiles": "CCO[C@@H]([C@H]1C[C@@H](C)[C@H]2[C@H](O1)[C@H](O)[C@@]1(C)[C@@H]3CC[C@H]4C(C)(C)[C@@H](OC(=O)NCCN5CCOCC5)CC[C@@]45C[C@@]35CC[C@]21C)C(C)(C)O", "recorded_value": "> 5 µM"}
{"record_smiles": "CCO[C@@H]([C@H]1C[C@@H](C)[C@H]2[C@H](O1)[C@H](O)[C@@]1(C)[C@@H]3CC[C@H]4C(C)(C)[C@@H](OC(=O)N5CCN(C6COC6)CC5)CC[C@@]45C[C@@]35CC[C@]21C)C(C)(C)O", "recorded_value": "> 5 µM"}
{"record_smiles": "CCO[C@@H]([C@H]1C[C@@H](C)[C@H]2[C@H](O1)[C@H](O)[C@@]1(C)[C@@H]3CC[C@H]4C(C)(C)[C@@H](OC(=O)N(C)C5CN(C)C5)CC[C@@]45C[C@@]35CC[C@]21C)C(C)(C)O", "recorded_value": "1 to 5 µM"}
{"record_smiles": "CCO[C@@H]([C@H]1C[C@@H](C)[C@H]2[C@H](O1)[C@H](O)[C@@]1(C)[C@@H]3CC[C@H]4C(C)(C)[C@@H](OC(=O)NCCN5CCN(CC(F)F)CC5)CC[C@@]45C[C@@]35CC[C@]21C)C(C)(C)O", "recorded_value": "1 to 5 µM"}
{"record_smiles": "CCO[C@@H]([C@H]1C[C@@H](C)[C@H]2[C@H](O1)[C@H](O)[C@@]1(C)[C@@H]3CC[C@H]4C(C)(C)[C@@H](OC(=O)NCCN5CC(F)(F)C5)CC[C@@]45C[C@@]35CC[C@]21C)C(C)(C)O", "recorded_value": "> 5 µM"}
{"record_smiles": "CCO[C@@H]([C@H]1C[C@@H](C)[C@H]2[C@H](O1)[C@H](O)[C@@]1(C)[C@@H]3CC[C@H]4C(C)(C)[C@@H](OC(=O)N5CCN(C)CC5)CC[C@@]45C[C@@]35CC[C@]21C)C(C)(C)O", "recorded_value": "1 to 5 µM"}
